Values from the supplement of paper PMC12764529

- Run description: folding stability dG unfold from trypsin proteolysis; higher = more stable
Binary classification by folding stability dG unfold, with 1 kcal/mol as an inclusive lower bound for YES; all other cases are NO.

Record SAGGSAGGSAGGSMVLYERVPASELPPGKGETLLIREVTVEKLPGNRIILNEGVKVIPPSAGGSAGGSAGGS [r4_444_JUSTAS] ; criterion: folding stability dG unfold no lower than 1 kcal/mol. Met?
NO

Record SAGGSAGGSMPPVVLEVKDPESGKVTTLFFFPPTGEALVVPPDGSVFYEPFTSLDELVERLAGSAGGSAGGS [r12_511_TrMRF] ; criterion: folding stability dG unfold no lower than 1 kcal/mol. Met?
YES

Record SAGGSAEEEVETVTLTVTVTVPPAPEVEVVSVEVERLPDGTLRVRAVVRLKDVPDRFVEVELTIRPSAGGSA [r15_627_TrROS_Hall] ; criterion: folding stability dG unfold no lower than 1 kcal/mol. Met?
YES

Record SAGGSAGGSAGMTVTVPPDLDPESAIAALKAAAPASVKTVTLTIVDGEGPTTTVTVDITGSAGGSAGGSAGG [r17_215_JUSTAS] ; criterion: folding stability dG unfold no lower than 1 kcal/mol. Met?
NO

Record SAGGSAGGNPDLVITFPDGVKITVHPDGTITITRFIPGRDVPVGTRTITVPAPDGIPLEELLKYSAGGSAGG [r6_572_TrMRF] ; criterion: folding stability dG unfold no lower than 1 kcal/mol. Met?
NO

Record SSSGPKTELITLKYEEPVRSPEEAEARARALAEEIAERTGAPIEVDVEIEYDPETGKAYVTVPVRVLLPDSA [r9_741_JUSTAS] ; criterion: folding stability dG unfold no lower than 1 kcal/mol. Met?
YES
